# ASSAYED TARGET: human MR (Homo sapiens, UniProt P08235)
# Construct: host or cells: insect Sf9 cells
# Sequence (P08235 whole entry): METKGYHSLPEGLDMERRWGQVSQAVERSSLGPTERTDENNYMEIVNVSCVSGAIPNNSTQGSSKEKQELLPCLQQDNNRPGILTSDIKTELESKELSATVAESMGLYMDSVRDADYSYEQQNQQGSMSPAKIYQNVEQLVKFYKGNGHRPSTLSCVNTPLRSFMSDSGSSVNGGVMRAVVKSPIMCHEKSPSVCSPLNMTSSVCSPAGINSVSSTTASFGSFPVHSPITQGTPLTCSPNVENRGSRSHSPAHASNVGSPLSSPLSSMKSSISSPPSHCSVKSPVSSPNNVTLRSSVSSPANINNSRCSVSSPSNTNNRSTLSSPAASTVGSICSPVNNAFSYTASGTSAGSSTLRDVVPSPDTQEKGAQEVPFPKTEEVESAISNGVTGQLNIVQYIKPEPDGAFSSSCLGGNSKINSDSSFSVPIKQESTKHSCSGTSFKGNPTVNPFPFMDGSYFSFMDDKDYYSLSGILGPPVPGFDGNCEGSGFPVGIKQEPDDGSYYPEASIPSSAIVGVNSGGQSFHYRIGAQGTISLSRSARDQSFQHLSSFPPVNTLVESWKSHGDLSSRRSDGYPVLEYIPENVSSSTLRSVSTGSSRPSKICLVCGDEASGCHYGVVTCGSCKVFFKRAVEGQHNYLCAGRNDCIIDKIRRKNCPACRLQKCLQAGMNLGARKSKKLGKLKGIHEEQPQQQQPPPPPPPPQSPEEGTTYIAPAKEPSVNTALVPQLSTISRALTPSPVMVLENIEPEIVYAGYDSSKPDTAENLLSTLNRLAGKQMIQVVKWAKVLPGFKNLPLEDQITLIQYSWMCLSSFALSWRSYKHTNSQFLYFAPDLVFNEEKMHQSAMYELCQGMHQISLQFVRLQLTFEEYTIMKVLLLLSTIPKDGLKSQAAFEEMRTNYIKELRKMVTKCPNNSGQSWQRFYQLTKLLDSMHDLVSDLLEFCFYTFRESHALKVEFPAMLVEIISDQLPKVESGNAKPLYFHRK
# EXPERIMENT SUMMARY: Human MR radioligand binding (3H-aldosterone, recombinant MR from Sf9 cells)
# PARTICULARS: 3H-aldosterone 0.4 nM, 20 h, 4°C; read-out: Mineralocorticoid receptor Ki
QUANTITY KIND: Ki (pM)
Entry rule: numbers only, all in pM.

Measured on human MR (Homo sapiens, UniProt P08235), C[C@]12C=CC(=O)C=C1CC[C@@H]1[C@@H]2[C@@H](O)C[C@@]2(C)[C@H]1CC[C@]2(O)C(=O)CO [Prednisolone] has a documented Ki of 260
